TESTED_SYSTEM: HIV-1 integrase wild-type (IN1-288) (HIV-1, UniProt P12497 P12497:1148-1435)
MEASUREMENT_PROTOCOL: inhibition; first activity column (headed strand transfer); other column 0.100
RECORDED_CONDITIONS: G4
READOUT_LABEL: IC50 (nM)
# unit: nM | format: bare number

Ask: Retrieve IC50 measured for GTGGTGGGTGGGCGGGT (ssDNA, PS at first and last linkages) [T30745] and print it.
Reply: 100
